- EXPERIMENTAL_TARGET: D(3) dopamine receptor (Homo sapiens, UniProt P35462)
- Sequence (P35462 whole entry): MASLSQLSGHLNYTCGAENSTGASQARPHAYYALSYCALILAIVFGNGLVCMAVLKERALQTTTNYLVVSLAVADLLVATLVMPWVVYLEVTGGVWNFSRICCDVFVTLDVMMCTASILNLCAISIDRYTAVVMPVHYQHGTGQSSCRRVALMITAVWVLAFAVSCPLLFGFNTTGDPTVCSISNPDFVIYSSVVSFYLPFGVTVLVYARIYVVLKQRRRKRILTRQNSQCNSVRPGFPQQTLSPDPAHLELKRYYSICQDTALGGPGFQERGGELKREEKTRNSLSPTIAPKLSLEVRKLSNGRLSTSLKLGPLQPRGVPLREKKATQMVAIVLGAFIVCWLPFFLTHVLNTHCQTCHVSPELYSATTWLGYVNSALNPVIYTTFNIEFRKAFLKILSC
- MEASUREMENT_PROTOCOL: In vitro binding affinity to displace [3H]spiperone from the cloned human dopamine receptor D3 in CHO cells
- Type: cell-based
PROPERTY_MEASURED: pKi
Answers are plain numbers, as −log10 of the molar value.

Item "c1ccc(C2=NCC[C@@H](CN3CCN(c4ccccc4)CC3)N2)cc1" has what recorded pKi?
4.89

###

- EXPERIMENTAL_TARGET: D(4) dopamine receptor (Homo sapiens, UniProt P21917)
- Sequence (P21917 whole entry): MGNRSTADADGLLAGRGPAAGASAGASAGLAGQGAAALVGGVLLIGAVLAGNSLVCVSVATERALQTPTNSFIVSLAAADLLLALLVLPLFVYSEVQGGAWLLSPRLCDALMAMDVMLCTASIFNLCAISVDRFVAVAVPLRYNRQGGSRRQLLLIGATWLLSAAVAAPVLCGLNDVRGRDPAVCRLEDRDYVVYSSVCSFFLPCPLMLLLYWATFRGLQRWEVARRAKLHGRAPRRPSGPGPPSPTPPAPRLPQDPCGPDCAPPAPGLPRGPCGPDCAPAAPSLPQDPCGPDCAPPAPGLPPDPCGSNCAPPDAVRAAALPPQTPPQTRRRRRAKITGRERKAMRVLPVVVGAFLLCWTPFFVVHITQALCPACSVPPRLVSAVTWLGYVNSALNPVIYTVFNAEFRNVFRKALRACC
- MEASUREMENT_PROTOCOL: biochemical
- Type: cell-based, CHO
- Description: In vitro binding affinity to displace [3H]spiperone from the cloned human dopamine receptor D4 in CHO cells
Would you mind telling me the reported pKi of each entry?
Give bare numbers, as −log10 of the molar value.

In the examples that follow, each entry is paired with its recorded pKi.
c1ccc(C2=NCC(N3CCN(c4ccccc4)CC3)CCN2)cc1 (single isomer, unassigned) | 5.36
COc1ccc(Br)cc1C1=NCC[C@H](CN2CCN(c3ccccc3)CC2)N1 | 5.80
COc1ccc(Br)cc1C1=NCC[C@@H](CN2CCN(c3ccccc3)CC2)N1 | 5.46
c1ccc(C2=NC[C@H](N3CCN(c4ccccc4)CC3)CCN2)cc1 | 6.92

For each of the compounds below, state pKi.
1. O=C1C[C@H](CN2CCN(c3ccccc3)CC2)N=C(c2ccccc2)N1
2. O=C1C[C@@H](CN2CCN(c3ccccc3)CC2)N=C(c2ccccc2)N1

1: 6.34; 2: 5.43
